Entries annotated with measured log10 Ki
# target: human P2X2/3 receptor (Homo sapiens, UniProt P56373+Q9UBL9)
# Construct: expressed in transfected cells; host or cells: CHO-K1
# Sequence (Q9UBL9 whole entry): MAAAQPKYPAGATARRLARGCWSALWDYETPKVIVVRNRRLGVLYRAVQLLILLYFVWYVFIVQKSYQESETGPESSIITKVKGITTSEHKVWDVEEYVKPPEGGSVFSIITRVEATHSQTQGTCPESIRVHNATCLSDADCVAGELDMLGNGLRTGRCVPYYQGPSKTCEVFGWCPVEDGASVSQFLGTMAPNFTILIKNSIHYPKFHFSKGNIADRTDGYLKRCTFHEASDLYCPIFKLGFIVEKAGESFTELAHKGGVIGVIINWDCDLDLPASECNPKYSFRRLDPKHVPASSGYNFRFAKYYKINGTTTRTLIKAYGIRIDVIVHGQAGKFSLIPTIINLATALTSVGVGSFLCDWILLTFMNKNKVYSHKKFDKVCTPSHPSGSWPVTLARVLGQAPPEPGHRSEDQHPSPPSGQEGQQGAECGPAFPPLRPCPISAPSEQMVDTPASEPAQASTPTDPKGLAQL
# Sequence (P56373 whole entry): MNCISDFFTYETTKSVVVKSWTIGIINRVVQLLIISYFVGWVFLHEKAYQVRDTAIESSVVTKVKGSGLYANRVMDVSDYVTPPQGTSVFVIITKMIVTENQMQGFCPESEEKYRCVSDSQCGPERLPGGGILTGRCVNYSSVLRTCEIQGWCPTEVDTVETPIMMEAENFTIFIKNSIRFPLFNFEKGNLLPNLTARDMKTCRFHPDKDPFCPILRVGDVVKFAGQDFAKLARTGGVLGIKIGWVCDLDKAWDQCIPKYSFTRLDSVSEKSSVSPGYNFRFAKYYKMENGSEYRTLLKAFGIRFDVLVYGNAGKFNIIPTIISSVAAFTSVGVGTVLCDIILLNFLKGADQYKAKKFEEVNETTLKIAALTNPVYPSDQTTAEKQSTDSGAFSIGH
# assay.method.text: P2X3/P2X2/3 FLIPR (Fluorometric Imaging Plate Reader) Assay, P2X2/3
# Assay type: cell-based
# study.conditions: CHO-K1 cells transfected with human P2X2/3; agonist α,β-meATP 5 μM; Table 1; read-out: P2X2/3 pKi (converted)
Values are log10 of Ki in nM.

Task: Suppose we examine the compound Cc1ccc(-c2cc(C(=O)NCc3cnc(C)cn3)cc(-n3ncnc3-c3ccccc3)c2)nc1 ; what log10 Ki value has been reported?
Output: 3.05

Task: Suppose we examine the compound Cc1ccc(-c2cc(C(=O)NCc3ccc(C)nn3)cc(-n3ncnc3C3CCC3)c2)nc1 ; what log10 Ki value has been reported?
Output: 1.37

Task: Suppose we examine the compound CC(C)c1ncnn1-c1cc(C(=O)NC2CC2)cc(-c2ccc(Cl)cn2)c1 ; what log10 Ki value has been reported?
Output: 2.94

Task: Suppose we examine the compound CCCc1ncnn1-c1cc(C(=O)NC(C)c2cnccn2)cc(-c2ccc(C)cn2)c1 (stereo not shown) ; what log10 Ki value has been reported?
Output: 1.90

###

Entries annotated with measured Ki
# target: rat P2X3 receptor (Rattus norvegicus, UniProt P49654)
# Construct: expressed in transfected cells; host or cells: CHO-K1
# Sequence (P49654 whole entry): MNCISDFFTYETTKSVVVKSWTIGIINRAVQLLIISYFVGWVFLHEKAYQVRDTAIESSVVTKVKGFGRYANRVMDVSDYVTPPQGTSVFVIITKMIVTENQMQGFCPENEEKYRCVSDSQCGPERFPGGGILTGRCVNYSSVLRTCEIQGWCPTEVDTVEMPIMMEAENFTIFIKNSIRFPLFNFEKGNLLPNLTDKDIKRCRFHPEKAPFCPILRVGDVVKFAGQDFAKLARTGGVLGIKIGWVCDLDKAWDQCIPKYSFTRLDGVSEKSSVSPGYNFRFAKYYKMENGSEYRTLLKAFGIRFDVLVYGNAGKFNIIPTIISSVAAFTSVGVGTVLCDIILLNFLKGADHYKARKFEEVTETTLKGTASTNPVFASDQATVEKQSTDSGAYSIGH
# assay.method.text: P2X3/P2X2/3 FLIPR (Fluorometric Imaging Plate Reader) Assay, P2X3
# Type: cell-based
# study.conditions: CHO-K1 cells transfected with rat P2X3; agonist α,β-meATP 1 μM; Table 1; read-out: P2X3 pKi (converted)
Give the value in nM but do not write nM after it.

Example entries and their recorded answers appear below.
Task: Kindly state the measured Ki obtained for Cc1ccc(-c2cc(C(=O)NCc3cnc(C)cn3)cc(-n3ncnc3C(F)(F)F)c2F)nc1 with rat P2X3 receptor (Rattus norvegicus, UniProt P49654).
Output: 11.5

Task: Kindly state the measured Ki obtained for CCOCCc1ncnn1-c1cc(C(=O)NCc2cnc(C)cn2)cc(-c2ccc(C)cn2)c1 with rat P2X3 receptor (Rattus norvegicus, UniProt P49654).
Output: 20

Task: Kindly state the measured Ki obtained for CCCc1ncnn1-c1cc(C(=O)NC(C)CN(C)C)cc(-c2ccc(C)cc2)c1 (stereo not drawn) with rat P2X3 receptor (Rattus norvegicus, UniProt P49654).
Output: 339

Task: Kindly state the measured Ki obtained for Cc1ccc(-c2cc(-n3ncnc3C(C)C)cc(C(=O)NC(C)c3cnccn3)c2F)nc1 (stereo not drawn) with rat P2X3 receptor (Rattus norvegicus, UniProt P49654).
Output: 3.98

Task: Kindly state the measured Ki obtained for C[C@@H](CO)NC(=O)c1cc(-c2ccc(Cl)cn2)cc(-n2ncnc2C(C)(F)F)c1 with rat P2X3 receptor (Rattus norvegicus, UniProt P49654).
Output: 8.91

New cases:
Task: Kindly state the measured Ki obtained for CCc1ncnn1-c1cc(C(=O)NC(C)c2cnccn2)cc(-c2ccc(Cl)cn2)c1 (stereo not drawn) with rat P2X3 receptor (Rattus norvegicus, UniProt P49654).
Output: 19.1

Task: Kindly state the measured Ki obtained for Cc1cnc(CNC(=O)c2cc(-c3ccc(Cl)cn3)cc(-n3ncnc3C(C)C)c2)cn1 with rat P2X3 receptor (Rattus norvegicus, UniProt P49654).
Output: 5.89

Task: Kindly state the measured Ki obtained for COCC(C)NC(=O)c1cc(-c2ccc(C)cc2)cc(-n2cncn2)c1 (stereo not drawn) with rat P2X3 receptor (Rattus norvegicus, UniProt P49654).
Output: 1450

Task: Kindly state the measured Ki obtained for Cc1ccc(-c2cc(C(=O)NC(C)c3cnccn3)cc(-n3ncnc3C(F)(F)F)c2F)nc1 (stereo not drawn) with rat P2X3 receptor (Rattus norvegicus, UniProt P49654).
Output: 3.72

###

Entries annotated with measured Ki
# target: rat P2X3 receptor (Rattus norvegicus)
# Construct: expressed in transfected cells; host or cells: CHO-K1
# assay.method.text: P2X3/P2X2/3 FLIPR (Fluorometric Imaging Plate Reader) Assay, P2X3
# Type: cell-based
# study.conditions: CHO-K1 cells transfected with rat P2X3; agonist α,β-meATP 1 μM; Table 1; read-out: P2X3 pKi (converted)
Give the value in nM but do not write nM after it.

Example entries and their recorded answers appear below.
Task: Suppose we examine the compound Cc1ccc(-c2cc(C(=O)NC(C)c3cnccn3)cc(-n3nc(C)nc3C(C)C)c2)cc1 (stereo not drawn) [Compound 30] ; what Ki value has been reported?
Output: 4.57

Task: Suppose we examine the compound Cc1ccc(-c2cc(C(=O)NCc3cnc(C)cn3)cc(-n3ncnc3C(F)(F)F)c2)nc1 [Compound 99] ; what Ki value has been reported?
Output: 3.24

Task: Suppose we examine the compound CCCc1ncnn1-c1cc(C(=O)NCc2cnc(C)cn2)cc(-c2ccc(Cl)cn2)c1 [Compound 109] ; what Ki value has been reported?
Output: 5.5

Task: Suppose we examine the compound Cc1ccc(-c2cc(C(=O)N[C@@H](C)CO)cc(-n3ncnc3C(F)(F)F)c2F)nc1 [Compound 165] ; what Ki value has been reported?
Output: 74.1

Task: Suppose we examine the compound Cc1ccc(-c2cc(C(=O)NC(C)c3cnccn3)cc(-n3ncnc3C(C)C)c2)nc1 (stereo not drawn) [Compound 56] ; what Ki value has been reported?
Output: 4.57

New cases:
Task: Suppose we examine the compound Cc1ccc(-c2cc(C(=O)N[C@@H](C)CO)cc(-n3ncnc3C(C)C)c2)cc1 [Compound 17] ; what Ki value has been reported?
Output: 2.88

Task: Suppose we examine the compound COCCc1nc(C)nn1-c1cc(C(=O)NCc2cnc(C)cn2)cc(-c2ccc(C)cn2)c1 [Compound 154] ; what Ki value has been reported?
Output: 151

Task: Suppose we examine the compound Cc1ccc(-c2cc(C(=O)NCc3cnc(C)cn3)cc(-n3ncnc3C)c2)nc1 [Compound 101] ; what Ki value has been reported?
Output: 7.94

Task: Suppose we examine the compound CC(NC(=O)c1cc(-c2ccc(Cl)cc2)cc(-n2ncnc2N(C)C)c1)c1cnccn1 (stereo not drawn) [Compound 44] ; what Ki value has been reported?
Output: 81.3

Task: Suppose we examine the compound Cc1ccc(-c2cc(C(=O)NC(C)c3cnccn3)cc(-n3ncnc3C(C)C)c2)c(F)c1 (stereo not drawn) [Compound 36] ; what Ki value has been reported?
Output: 3.72

Task: Suppose we examine the compound Cc1ccc(-c2cc(-n3ncnc3C(F)(F)F)cc(C(=O)NCc3ccc(C)nn3)c2F)nc1 [Compound 176] ; what Ki value has been reported?
Output: 3.72

Task: Suppose we examine the compound Cc1ccc(-c2cc(C(=O)NC(C)c3cnccn3)cc(-n3ncnc3C)c2)nc1 (stereo not drawn) [Compound 100] ; what Ki value has been reported?
Output: 10.2

###

# target: human P2X2/3 receptor (Homo sapiens, UniProt P56373+Q9UBL9)
# Construct: expressed in transfected cells; host or cells: CHO-K1
# assay.method.text: P2X3/P2X2/3 FLIPR (Fluorometric Imaging Plate Reader) Assay, P2X2/3
# Format: cell-based
# study.conditions: CHO-K1 cells transfected with human P2X2/3; agonist α,β-meATP 5 μM; Table 1; read-out: P2X2/3 pKi (converted)
# Procedure: P2X3/P2X2/3 FLIPR (Fluorometric Imaging Plate Reader) Assay CHO-K1 cells were transfected with cloned rat P2X3 or human P2X2/3 receptor subunits and passaged in flasks. […] Test compounds (dissolved in DMSO at 10 mM and serially diluted with FB) or vehicle were added to each well (25 μl of a 4× solution) and allowed to equilibrate for 20 minutes at room temperature. […] Fluorescence was measured for an additional 2 minutes at 1 second intervals after agonist addition. […]
result.type: Ki (µM)
Give the value in µM but do not write µM after it.

Example entries and their recorded answers appear below.
Task: Kindly state the measured Ki obtained for Cc1ccc(-c2cc(-n3ncnc3C(C)C)cc(C(=O)NC(C)c3cnccn3)c2F)nc1 (stereo not drawn) [Compound 173] with human P2X2/3 receptor (Homo sapiens, UniProt P56373+Q9UBL9).
Output: 0.0851

Task: Kindly state the measured Ki obtained for Cc1ccc(-c2cc(C(=O)N[C@@H](C)CO)cc(-n3ncnc3C(C)C)c2)nc1 [Compound 55] with human P2X2/3 receptor (Homo sapiens, UniProt P56373+Q9UBL9).
Output: 0.457

Task: Kindly state the measured Ki obtained for Cc1ccc(-c2cc(-n3ncnc3C(F)(F)F)cc(C(=O)NC(C)c3cnccn3)c2F)nc1 (stereo not drawn) [Compound 168] with human P2X2/3 receptor (Homo sapiens, UniProt P56373+Q9UBL9).
Output: 2.69

Task: Kindly state the measured Ki obtained for Cc1ccc(-c2cc(C(=O)NCc3cnc(C)cn3)cc(-n3ncnc3C)c2)nc1 [Compound 101] with human P2X2/3 receptor (Homo sapiens, UniProt P56373+Q9UBL9).
Output: 1.15

Task: Kindly state the measured Ki obtained for Cc1ccc(-c2cc(C(=O)N[C@H](C)CN3CCOCC3)cc(-n3ncnc3C(F)(F)F)c2)nc1 [Compound 179] with human P2X2/3 receptor (Homo sapiens, UniProt P56373+Q9UBL9).
Output: 0.339

New cases:
Task: Kindly state the measured Ki obtained for CC(NC(=O)c1cc(-c2ccc(Cl)cc2)cc(-n2ncnc2N(C)C)c1)c1cnccn1 (stereo not drawn) [Compound 44] with human P2X2/3 receptor (Homo sapiens, UniProt P56373+Q9UBL9).
Output: 0.759

Task: Kindly state the measured Ki obtained for Cc1ccc(-c2cc(C(=O)NC(C)c3cnccn3)cc(-n3ncnc3C3CC3)c2)nc1 (stereo not drawn) [Compound 60] with human P2X2/3 receptor (Homo sapiens, UniProt P56373+Q9UBL9).
Output: 0.389

Task: Kindly state the measured Ki obtained for Cc1ccc(-c2cc(C(=O)NCc3cnc(C)cn3)cc(-n3ncnc3CC(C)(C)O)c2)nc1 [Compound 156] with human P2X2/3 receptor (Homo sapiens, UniProt P56373+Q9UBL9).
Output: 10
